System: 233499-124-R-J3-PDC complex spheroid viability, % test/control
Procedure details: Anticancer human tumor 233499-124-R-J3-PDC patient-derived colon adenocarcinoma cell line growth inhibition
Test parameters: second compound 10 µM; first compound 0.0949 µM; stronger effect = lower value
Property name: viability, T/C

molecule="Nc1ncn(C2CC(O)C(CO)S2)c(=O)n1 (configuration not stated) + NC1CCC(NC2CC2c2ccccc2)CC1" result=32.1%
molecule="NS(=O)(=O)OCC1CC(n2ccc3c(NC4CCc5ccccc54)ncnc32)CC1O (configuration not stated) + NC1CC1c1ccc(-c2cccc(O)c2)cc1" result=27.1%
molecule="Nc1ncn(C2CC(O)C(CO)S2)c(=O)n1 (configuration not stated) + NC1CC1c1ccc(-c2cccc(O)c2)cc1" result=45%
molecule="CCc1c2c(nc3ccc(O)cc13)-c1cc3c(c(=O)n1C2)COC(=O)[C@]3(O)CC + NC1CCC(NC2CC2c2ccccc2)CC1" result=27.1%
molecule="COc1cc(C2c3cc4c(cc3C(OC3OC5COC(C)OC5C(O)C3O)C3COC(=O)C23)OCO4)cc(OC)c1O (configuration not stated) + NC1CCC(NC2CC2c2ccccc2)CC1" result=74.7%
molecule="CCN(c1cc(-c2ccc(CN3CCOCC3)cc2)cc(C(=O)NCc2c(C)cc(C)[nH]c2=O)c1C)C1CCOCC1 + NC1CC1c1ccc(-c2cccc(O)c2)cc1" result=84.7%
molecule="O=C(C=Cc1cccc(S(=O)(=O)Nc2ccccc2)c1)NO + NC1CC1c1ccc(-c2cccc(O)c2)cc1" result=90.9%

====

Test system: 233499-124-R-J3-PDC complex spheroid viability, % test/control
Procedure details: Anticancer human tumor 233499-124-R-J3-PDC cell line growth inhibition;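 also: spheroids exposed to agents for one week before readout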
Test parameters: second compound 1 µM; first compound 0.1 µM; stronger effect = lower value
Text: Multicellular complex tumor spheroid response to LSD1 Inhibitor Iadademstat in combination with a variety of drugs and investigational agents in selected tumor cell lines The current study was undertaken to assess response to LSD1 inhibitors in combination with standard-of-care drugs and investigational agents in solid tumor complex spheroid models as well as in the K-562 leukemia. […] Compounds. […] If the clinical Cmax for an agent had not been determined, the highest concentration tested was 10 microM. […]
Property name: viability, T/C (%)

compound="CC(C)CC(NC(=O)C(Cc1ccccc1)NC(=O)c1cnccn1)B(O)O (centres undefined) + NC1CC1c1ccc(-c2cccc(O)c2)cc1" property_name="viability, T/C" numeric_readout=0.2
compound="COc1ccc([C@@H](O)c2cc(-c3ncnc4cc(N5CCOCC5)ccc34)c(F)cc2Cl)nn1 + NC1CCC(NC2CC2c2ccccc2)CC1" property_name="viability, T/C" numeric_readout=79.2
compound="O=C(C=Cn1cnc(-c2cc(C(F)(F)F)cc(C(F)(F)F)c2)n1)NNc1cnccn1 + NC1CCC(NC2CC2c2ccccc2)CC1" property_name="viability, T/C" numeric_readout=40
compound="CC1(C)CCC(CN2CCN(c3ccc(C(=O)NS(=O)(=O)c4ccc(NCC5CCOCC5)c([N+](=O)[O-])c4)c(Oc4cnc5[nH]ccc5c4)c3)CC2)=C(c2ccc(Cl)cc2)C1 + NC1CC1c1ccc(-c2cccc(O)c2)cc1" property_name="viability, T/C" numeric_readout=92

====

Test system: 233499-124-R-J3-PDC complex spheroid viability, % test/control
Procedure details: Anticancer human tumor 233499-124-R-J3-PDC cell line growth inhibition;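 also: spheroids exposed to agents for one week before readout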
Test parameters: second compound 3.16 µM; first compound 0.0949 µM; stronger effect = lower value
Parameter: viability, T/C. Scope: all listed entries.
Property name: viability, T/C (%)

compound="CCc1c2c(nc3ccc(O)cc13)-c1cc3c(c(=O)n1C2)COC(=O)[C@]3(O)CC + NC1CC1c1ccc(-c2cccc(O)c2)cc1" property_name="viability, T/C" numeric_readout=31.5
compound="COc1cc(C2c3cc4c(cc3C(OC3OC5COC(C)OC5C(O)C3O)C3COC(=O)C23)OCO4)cc(OC)c1O (stereo not drawn) + NC1CC1c1ccc(-c2cccc(O)c2)cc1" property_name="viability, T/C" numeric_readout=73
compound="COc1cc(C2c3cc4c(cc3C(OC3OC5COC(C)OC5C(O)C3O)C3COC(=O)C23)OCO4)cc(OC)c1O (stereo not drawn) + NC1CCC(NC2CC2c2ccccc2)CC1" property_name="viability, T/C" numeric_readout=81.4

====

System: 233499-124-R-J3-PDC complex spheroid viability, % test/control
Procedure details: Anticancer human tumor 233499-124-R-J3-PDC cell line growth inhibition;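 also: spheroids exposed to agents for one week before readout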
Test parameters: second compound 0.316 µM; first compound 0.00949 µM; stronger effect = lower value
Property name: viability, T/C

compound="Nc1ccn(C2OC(CO)C(O)C2(F)F)c(=O)n1 (stereo unspecified) + NC1CCC(NC2CC2c2ccccc2)CC1" result=22.2%
compound="Nc1ccn(C2OC(CO)C(O)C2(F)F)c(=O)n1 (stereo unspecified) + NC1CC1c1ccc(-c2cccc(O)c2)cc1" result=75.3%
compound="CCc1c2c(nc3ccc(O)cc13)-c1cc3c(c(=O)n1C2)COC(=O)[C@]3(O)CC + NC1CCC(NC2CC2c2ccccc2)CC1" result=107%
compound="Nc1ccccc1NC(=O)c1ccc(CNC(=O)OCc2cccnc2)cc1 + NC1CC1c1ccc(-c2cccc(O)c2)cc1" result=101%
compound="O=C(C=Cc1cccc(S(=O)(=O)Nc2ccccc2)c1)NO + NC1CC1c1ccc(-c2cccc(O)c2)cc1" result=126%
compound="NS(=O)(=O)OCC1CC(n2ccc3c(NC4CCc5ccccc54)ncnc32)CC1O (stereo unspecified) + NC1CCC(NC2CC2c2ccccc2)CC1" result=90.8%
compound="O=C(C=Cc1cccc(S(=O)(=O)Nc2ccccc2)c1)NO + NC1CCC(NC2CC2c2ccccc2)CC1" result=101%
compound="CCc1c2c(nc3ccc(O)cc13)-c1cc3c(c(=O)n1C2)COC(=O)[C@]3(O)CC + NC1CC1c1ccc(-c2cccc(O)c2)cc1" result=88.1%
compound="Nc1ccccc1NC(=O)c1ccc(CNC(=O)OCc2cccnc2)cc1 + NC1CCC(NC2CC2c2ccccc2)CC1" result=92.2%
compound="Nc1ncn(C2CC(O)C(CO)S2)c(=O)n1 (stereo unspecified) + NC1CCC(NC2CC2c2ccccc2)CC1" result=117%
compound="COc1cc(C2c3cc4c(cc3C(OC3OC5COC(C)OC5C(O)C3O)C3COC(=O)C23)OCO4)cc(OC)c1O (stereo unspecified) + NC1CC1c1ccc(-c2cccc(O)c2)cc1" result=109%
compound="COc1cc(C2c3cc4c(cc3C(OC3OC5COC(C)OC5C(O)C3O)C3COC(=O)C23)OCO4)cc(OC)c1O (stereo unspecified) + NC1CCC(NC2CC2c2ccccc2)CC1" result=119%
compound="NS(=O)(=O)OCC1CC(n2ccc3c(NC4CCc5ccccc54)ncnc32)CC1O (stereo unspecified) + NC1CC1c1ccc(-c2cccc(O)c2)cc1" result=100%
compound="Nc1ncn(C2CC(O)C(CO)S2)c(=O)n1 (stereo unspecified) + NC1CC1c1ccc(-c2cccc(O)c2)cc1" result=114%
compound="CCN(c1cc(-c2ccc(CN3CCOCC3)cc2)cc(C(=O)NCc2c(C)cc(C)[nH]c2=O)c1C)C1CCOCC1 + NC1CCC(NC2CC2c2ccccc2)CC1" result=101%
compound="CCN(c1cc(-c2ccc(CN3CCOCC3)cc2)cc(C(=O)NCc2c(C)cc(C)[nH]c2=O)c1C)C1CCOCC1 + NC1CC1c1ccc(-c2cccc(O)c2)cc1" result=117%

====

Tested on: 233499-124-R-J3-PDC complex spheroid viability, % test/control
Procedure details: Anticancer human tumor 233499-124-R-J3-PDC cell line growth inhibition; active = viability on the fitted dose curve at most 10% of control; inactive = the rest;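 also: spheroids exposed to agents for one week before readout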
Test parameters: second compound 0.1 µM; first compound 0.00316 µM
Labels: active, inactive

compound="CC(C)CC(NC(=O)CNC(=O)c1cc(Cl)ccc1Cl)B1OC(=O)CC(CC(=O)O)(C(=O)O)O1 (stereo not given) + NC1CCC(NC2CC2c2ccccc2)CC1" tested_system="233499-124-R-J3-PDC complex spheroid viability, % test/control" class_assignment=inactive
compound="Cn1ncnc1C1c2n[nH]c(=O)c3cc(F)cc(c23)NC1c1ccc(F)cc1 (stereo not given) + NC1CCC(NC2CC2c2ccccc2)CC1" tested_system="233499-124-R-J3-PDC complex spheroid viability, % test/control" class_assignment=inactive
compound="Nc1ncn(C2CC(O)C(CO)O2)c(=O)n1 (stereo not given) + NC1CC1c1ccc(-c2cccc(O)c2)cc1" tested_system="233499-124-R-J3-PDC complex spheroid viability, % test/control" class_assignment=inactive
compound="CC[C@@]1(O)C(=O)OCc2c1cc1n(c2=O)Cc2cc3c(CN(C)C)c(O)ccc3nc2-1 + NC1CCC(NC2CC2c2ccccc2)CC1" tested_system="233499-124-R-J3-PDC complex spheroid viability, % test/control" class_assignment=inactive
compound="CC[C@@]1(O)C(=O)OCc2c1cc1n(c2=O)Cc2cc3c(CN(C)C)c(O)ccc3nc2-1 + NC1CC1c1ccc(-c2cccc(O)c2)cc1" tested_system="233499-124-R-J3-PDC complex spheroid viability, % test/control" class_assignment=inactive
compound="CC(C)CC(NC(=O)CNC(=O)c1cc(Cl)ccc1Cl)B1OC(=O)CC(CC(=O)O)(C(=O)O)O1 (stereo not given) + NC1CC1c1ccc(-c2cccc(O)c2)cc1" tested_system="233499-124-R-J3-PDC complex spheroid viability, % test/control" class_assignment=inactive
compound="O=C(C=Cn1cnc(-c2cc(C(F)(F)F)cc(C(F)(F)F)c2)n1)NNc1cnccn1 + NC1CC1c1ccc(-c2cccc(O)c2)cc1" tested_system="233499-124-R-J3-PDC complex spheroid viability, % test/control" class_assignment=inactive
compound="CC(C)CC(NC(=O)C(Cc1ccccc1)NC(=O)c1cnccn1)B(O)O (stereo not given) + NC1CC1c1ccc(-c2cccc(O)c2)cc1" tested_system="233499-124-R-J3-PDC complex spheroid viability, % test/control" class_assignment=active
compound="Cn1ncnc1C1c2n[nH]c(=O)c3cc(F)cc(c23)NC1c1ccc(F)cc1 (stereo not given) + NC1CC1c1ccc(-c2cccc(O)c2)cc1" tested_system="233499-124-R-J3-PDC complex spheroid viability, % test/control" class_assignment=inactive
compound="CC1COCCN1c1cc(-c2ccnn2C)c2ccnc(-c3ccn[nH]3)c2n1 (stereo not given) + NC1CC1c1ccc(-c2cccc(O)c2)cc1" tested_system="233499-124-R-J3-PDC complex spheroid viability, % test/control" class_assignment=inactive
compound="CC1COCCN1c1cc(-c2ccnn2C)c2ccnc(-c3ccn[nH]3)c2n1 (stereo not given) + NC1CCC(NC2CC2c2ccccc2)CC1" tested_system="233499-124-R-J3-PDC complex spheroid viability, % test/control" class_assignment=inactive
compound="Nc1ncn(C2CC(O)C(CO)O2)c(=O)n1 (stereo not given) + NC1CCC(NC2CC2c2ccccc2)CC1" tested_system="233499-124-R-J3-PDC complex spheroid viability, % test/control" class_assignment=inactive
compound="COc1cc(Nc2ncc3c(n2)-c2ccc(Cl)cc2C(c2c(F)cccc2OC)=NC3)ccc1C(=O)O + NC1CC1c1ccc(-c2cccc(O)c2)cc1" tested_system="233499-124-R-J3-PDC complex spheroid viability, % test/control" class_assignment=inactive
compound="CC(C)CC(NC(=O)C(Cc1ccccc1)NC(=O)c1cnccn1)B(O)O (stereo not given) + NC1CCC(NC2CC2c2ccccc2)CC1" tested_system="233499-124-R-J3-PDC complex spheroid viability, % test/control" class_assignment=inactive
compound="O=C(C=Cn1cnc(-c2cc(C(F)(F)F)cc(C(F)(F)F)c2)n1)NNc1cnccn1 + NC1CCC(NC2CC2c2ccccc2)CC1" tested_system="233499-124-R-J3-PDC complex spheroid viability, % test/control" class_assignment=inactive
